details: buffer; pH 7.4; 200.0 µM

>  <molecule>
S=C(c1ccccc1)N1CCSCC1

>  <unitSpec>
µg/mL

>  <inequalitySymbol>
>

>  <solubility kinetic>
33.5

$$$$
>  <molecule>
Cl.Nc1ccc(Cc2ccccn2)cc1

>  <unitSpec>
µg/mL

>  <inequalitySymbol>
>

>  <solubility kinetic>
38.6

$$$$
>  <molecule>
COc1ccc(CCNC(=O)COC(=O)Cc2ccccc2[N+](=O)[O-])cc1

>  <unitSpec>
µg/mL

>  <inequalitySymbol>
>

>  <solubility kinetic>
55.9

$$$$
>  <molecule>
O=S1(=O)CC2SC(=S)N(c3ccccc3)C2C1 (stereo not drawn)

>  <unitSpec>
µg/mL

>  <inequalitySymbol>
=

>  <solubility kinetic>
1.3

$$$$
>  <molecule>
Cn1nccc1C(=O)N1CCC(Cc2ccccc2)CC1

>  <unitSpec>
µg/mL

>  <inequalitySymbol>
>

>  <solubility kinetic>
42.5

$$$$
>  <molecule>
Cc1cccc2c(N=O)c(O)[nH]c12

>  <unitSpec>
µg/mL

>  <inequalitySymbol>
>

>  <solubility kinetic>
26.4

$$$$
>  <molecule>
CCOC(=O)c1ccc(S(=O)(=O)Nc2cc(S(=O)(=O)N3CCOCC3)ccc2O)cc1

>  <unitSpec>
µg/mL

>  <inequalitySymbol>
=

>  <solubility kinetic>
69.5

$$$$
>  <molecule>
CC(C)Cc1ccc(C(C)NC(=O)c2ccc(=O)[nH]c2)cc1 (stereo not drawn)

>  <unitSpec>
µg/mL

>  <inequalitySymbol>
=

>  <solubility kinetic>
10

$$$$
>  <molecule>
O=C(NCCCN1CCCC1=O)c1ccc(Cl)c(Cl)c1

>  <unitSpec>
µg/mL

>  <inequalitySymbol>
=

>  <solubility kinetic>
45.9

$$$$
>  <molecule>
Cc1ccc(NC(=O)NC(=O)c2ccccc2)cc1F

>  <unitSpec>
µg/mL

>  <inequalitySymbol>
<

>  <solubility kinetic>
0.3

$$$$
>  <molecule>
CCCCNc1ncnc2sc3c(c12)CCN(CCC)C3

>  <unitSpec>
µg/mL

>  <inequalitySymbol>
=

>  <solubility kinetic>
44.9

$$$$
>  <molecule>
CN(Cc1cccs1)C(=O)CNC(=O)c1ccco1

>  <unitSpec>
µg/mL

>  <inequalitySymbol>
>

>  <solubility kinetic>
41.7

$$$$
>  <molecule>
CC(O)CNCCCOc1cccc(C(F)(F)F)c1.O=C(O)C(=O)O (stereo not drawn)

>  <unitSpec>
µg/mL

>  <inequalitySymbol>
=

>  <solubility kinetic>
51.7

$$$$

---

conditions: buffer; pH 7.4; 200.0 µM
solubility kinetic overview
metricName: solubility kinetic

>  <compound>
Cc1ccccc1-n1ccnc1SCC(=O)Nc1cccc(S(=O)(=O)NC2=NCCC2)c1

>  <metricName>
solubility kinetic

>  <resultValue>
> 70.4 µg/mL

$$$$
>  <compound>
O=C(CSc1ncn[nH]1)NCCc1ccc(Cl)cc1

>  <metricName>
solubility kinetic

>  <resultValue>
> 44.5 µg/mL

$$$$
>  <compound>
Cc1nc2ccc(C(=O)O)cc2c2c1CC(CN)O2 (stereo not drawn)

>  <metricName>
solubility kinetic

>  <resultValue>
19.7 µg/mL

$$$$
>  <compound>
CC(=O)C(CC(=O)N1CCCC1)C(=O)Nc1ccc(Cl)cc1 (stereo not drawn)

>  <metricName>
solubility kinetic

>  <resultValue>
> 48.4 µg/mL

$$$$
>  <compound>
NC(=O)c1ccccc1NC(=O)CC12CC3CC(CC(C3)C1)C2

>  <metricName>
solubility kinetic

>  <resultValue>
4.1 µg/mL

$$$$
>  <compound>
O=C(Nc1ccc(Oc2ccccc2)cc1)N[C@@H](Cc1ccccc1)C(=O)O

>  <metricName>
solubility kinetic

>  <resultValue>
> 56.5 µg/mL

$$$$
>  <compound>
Cl.Clc1ccc2sc(C3CCNCC3)nc2c1

>  <metricName>
solubility kinetic

>  <resultValue>
43.3 µg/mL

$$$$
>  <compound>
COc1cc(/C=C/c2ccc3cccc(O)c3n2)cc(OC)c1OC

>  <metricName>
solubility kinetic

>  <resultValue>
< 0.7 µg/mL

$$$$
